Molecular target: T1, FX activation peptide 12-mer PTENPFDLLDFN (human)
T1 peptide: PTENPFDLLDFN-biotin
Assay: peptide ELISA
Ends that are not written are not given here.
Quantity: ELISA signal relative to background

Given Nb 702C12 (VHH, monovalent Nanobody; not shown: C-terminal FLAG3 and HIS6 tag) VHH: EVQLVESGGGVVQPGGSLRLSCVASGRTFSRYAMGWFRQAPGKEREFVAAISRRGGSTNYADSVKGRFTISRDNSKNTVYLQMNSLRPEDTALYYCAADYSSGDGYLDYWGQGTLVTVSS , state its recorded ELISA signal relative to background.
4.58

Now give it for Nb 729A04 (VHH, monovalent Nanobody; not shown: C-terminal FLAG3 and HIS6 tag) VHH: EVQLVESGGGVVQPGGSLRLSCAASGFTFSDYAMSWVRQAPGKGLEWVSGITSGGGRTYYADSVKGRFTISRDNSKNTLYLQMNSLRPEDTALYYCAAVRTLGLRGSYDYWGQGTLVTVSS too.
5.18

Now give it for Nb 701B09 (VHH, monovalent Nanobody; also called Nb 701609; not shown: C-terminal FLAG3 and HIS6 tag) VHH: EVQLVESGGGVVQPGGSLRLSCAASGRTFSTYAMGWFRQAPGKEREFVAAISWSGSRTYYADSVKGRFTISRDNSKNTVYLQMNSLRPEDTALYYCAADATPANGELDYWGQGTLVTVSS too.
3.91

Now give it for Nb 729C08 (VHH, monovalent Nanobody; also called Nb 729008; not shown: C-terminal FLAG3 and HIS6 tag) VHH: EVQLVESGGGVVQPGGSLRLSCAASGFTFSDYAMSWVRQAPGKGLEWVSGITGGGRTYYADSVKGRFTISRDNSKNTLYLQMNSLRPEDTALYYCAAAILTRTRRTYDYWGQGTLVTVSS too.
2.06

Now give it for Nb 501A02 (VHH, monovalent control Nanobody; also called control Nanobody; not shown: C-terminal FLAG3 and HIS6 tag) VHH: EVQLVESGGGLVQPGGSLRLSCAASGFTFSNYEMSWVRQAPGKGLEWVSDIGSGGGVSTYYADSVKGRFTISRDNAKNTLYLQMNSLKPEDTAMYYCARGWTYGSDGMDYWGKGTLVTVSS too.
0.88
